Hey, just so you know, these numbers are from patent US10030016B2.

As shown below, each of these compounds has a reported IC50 value.
experimental system: PDK1 (Homo sapiens (Human))
experiment notes: PDK1 kinase assay (coupled PDK1/AKT/FAM-crosstide assay, IMAP fluorescence polarization)
Type: biochemical
run conditions: inhibition of phospo-PDK1 in vitro

As a guide, the following entries are already answered.
{"smiles representation": "O=C(NCc1ccc(F)c(F)c1)c1cccnc1NCc1ccc(-c2ccc3ncnc(N4CCC4)c3c2)s1", "experimental system": "PDK1 (Homo sapiens (Human))", "observed": "< 0.1 µM"}
{"smiles representation": "O=C(NCc1ccc(F)c(F)c1)c1cccnc1NCc1cccc(-c2ccc3ncnc(NC4CC4)c3c2)c1", "experimental system": "PDK1 (Homo sapiens (Human))", "observed": "< 0.1 µM"}
{"smiles representation": "CN(C)CCCNC(=O)c1cnc(NCc2ccc(-c3ccc4ncnc(N)c4c3)s2)c(C(=O)NCc2ccc(F)c(F)c2)c1", "experimental system": "PDK1 (Homo sapiens (Human))", "observed": "0.1 to 1 µM"}
{"smiles representation": "O=C1Nc2cc(OCCNc3ncccc3C(=O)NCc3ccc(F)c(F)c3)ccc2/C1=C/c1cnc[nH]1", "experimental system": "PDK1 (Homo sapiens (Human))", "observed": "< 0.1 µM"}
{"smiles representation": "Nc1ncnc2ccc(-c3csc(Nc4ncccc4C(=O)NCc4ccc(F)c(F)c4)n3)cc12", "experimental system": "PDK1 (Homo sapiens (Human))", "observed": "1 to 5 µM"}

Proceed to the following item.
response.value for Nc1ncnc2ccc(-c3ccc(CNc4nc5ccccc5cc4C(=O)NCc4ccc(F)c(F)c4)s3)cc12 (field: IC50) = < 0.1 µM

###

experimental system: PDK1 (Homo sapiens (Human), UniProt O15530)
Sequence (O15530 51-359): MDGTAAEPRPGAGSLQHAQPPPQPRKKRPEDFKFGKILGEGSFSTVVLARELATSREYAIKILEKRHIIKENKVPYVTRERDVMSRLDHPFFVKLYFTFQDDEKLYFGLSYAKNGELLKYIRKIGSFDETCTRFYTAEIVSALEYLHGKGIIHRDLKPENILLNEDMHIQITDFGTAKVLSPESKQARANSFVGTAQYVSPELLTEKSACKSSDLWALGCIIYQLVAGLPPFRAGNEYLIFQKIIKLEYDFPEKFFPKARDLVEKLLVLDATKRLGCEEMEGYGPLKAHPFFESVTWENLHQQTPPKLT
experiment notes: PDK1 kinase assay (coupled PDK1/AKT/FAM-crosstide assay, IMAP fluorescence polarization)
Type: biochemical
run conditions: inhibition of phospo-PDK1 in vitro
measure: IC50

{"smiles representation": "C[C@H](NC(=O)c1cc(C#N)cnc1NC/C=C/c1ccc2c(c1)NC(=O)C2)c1ccc(F)cc1", "IC50": "> 5000 nM"}
{"smiles representation": "CCCc1cnc(NCc2ccc(-c3ccc4ncnc(N)c4c3)s2)c(C(=O)NCc2ccc(F)c(F)c2)n1", "IC50": "1000 to 5000 nM"}
{"smiles representation": "CCCNC(=O)c1cccnc1NCc1cccc(-c2c[nH]c3ncccc23)c1", "IC50": "> 5000 nM"}

response.value for Nc1ncnc2ccc(-c3ccc(CNc4ncc(S(=O)(=O)NCc5cccnc5)cc4C(=O)NCc4ccc(F)c(F)c4)s3)cc12 (field: IC50) = 100 to 1000 nM

###

As shown below, each of these compounds has a reported pIC50 value.
experimental system: PDK1 (Homo sapiens (Human), UniProt O15530)
experiment notes: PDK1 kinase assay (coupled PDK1/AKT/FAM-crosstide assay, IMAP fluorescence polarization)
Format: biochemical
run conditions: inhibition of phospo-PDK1 in vitro
pIC50: −log10 of the molar value. Where a name gives a salt, the structure may show the parent alone.

As a guide, the following entries are already answered.
{"compound": "Nc1ncnc2ccc(-c3ccc(CNc4ncccc4S(=O)(=O)NCc4ccc(F)c(F)c4)s3)cc12", "pIC50": "< 5.30"}
{"compound": "Nc1ncnc2ccc(-c3ccc(CNc4ncccc4C(=O)NC4CCCCCC4)s3)cc12 [Example 3.30, (TFA salt)]", "pIC50": "< 5.30"}
{"compound": "CN(Cc1ccc(F)c(F)c1)C(=O)c1cccnc1NCc1ccc(-c2ccc3ncnc(N)c3c2)s1 [Example 3.13, (TFA salt)]", "pIC50": "6.00 to 7.00"}

Kindly note: PDK1 (Homo sapiens (Human), UniProt O15530), Cc1cnc(/C=C2\C(=O)Nc3cc(/C=C/CNc4ncccc4C(=O)NCc4ccc(F)c(F)c4)ccc32)[nH]1 , pIC50 value reported: > 7.00

Kindly note: PDK1 (Homo sapiens (Human), UniProt O15530), C[C@H](NC(=O)c1cccnc1NCc1ccc(-c2ccc3ncnc(N)c3c2)s1)c1ccc(F)c(F)c1 [Example 3.41, (TFA salt)] , pIC50 value reported: > 7.00

Kindly note: PDK1 (Homo sapiens (Human), UniProt O15530), N#Cc1cnc(NCc2ccc(-c3cnc4[nH]nc(N)c4c3)cc2)c(C(=O)NCc2ccc(F)c(F)c2)n1 , pIC50 value reported: > 7.00

Kindly note: PDK1 (Homo sapiens (Human), UniProt O15530), O=C(NCc1ccc(F)c(F)c1)c1cccnc1NCc1ccc(-c2c[nH]c3ncncc23)s1 , pIC50 value reported: 6.00 to 7.00
